Some compounds, each annotated with its measured IC50.
Test: Inhibition of CD95 (unknown origin)/FADD (unknown origin) protein-protein interaction transfected in HEK293T cells incubated for 1 hr by renilla luciferase based protein-fragment complementation assay
Assay type: cell-based, Homo sapiens
readout: IC50

structure_string=CCC(=O)N(CCN)[C@@H](CCCNC(=N)N)C(=O)NCCN(C(=O)CCCCCN)[C@@H](Cc1c[nH]cn1)C(=O)NCCN(C(=O)CCCCNC(=N)N)[C@@H](CCCCN)C(N)=O readout=IC50 reported_measurement="> 5 mM"
structure_string=C[C@@H](O)[C@H](N)C(=O)NCCN(C(=O)CCS)[C@@H](CCCNC(=N)N)C(=O)NCCN(C(=O)CCCCCN)[C@@H](Cc1c[nH]cn1)C(=O)NCCN(C(=O)CCCCNC(=N)N)[C@@H](CCCCN)C(N)=O readout=IC50 reported_measurement="> 5 mM"
structure_string=N=C(N)NCCCCC(=O)N(CCNC(=O)[C@H](Cc1c[nH]cn1)N(CCNC(=O)[C@H](CCCNC(=N)N)N(CCN)C(=O)CCS)C(=O)CCCCCN)[C@@H](CCCCN)C(N)=O readout=IC50 reported_measurement="3.8 mM"
structure_string=N=C(N)NCCC[C@@H](C(=O)NCCN(C(=O)CCCCCN)[C@@H](Cc1c[nH]cn1)C(=O)NCCN(C(=O)CCCCCC(N)=O)[C@@H](CCCCN)C(N)=O)N(CCN)C(=O)CCS readout=IC50 reported_measurement="> 5 mM"
structure_string=N=C(N)NCCC[C@@H](C(=O)NCCN(C(=O)CCCCCN)[C@@H](Cc1c[nH]cn1)C(=O)NCCN(C(=O)CCc1ccc(N)cc1)[C@@H](CCCCN)C(N)=O)N(CCN)C(=O)CCS readout=IC50 reported_measurement="> 5 mM"
